Kindly state pIC50 for each of the entries shown.
Target Or Test System: MSN–CD44 interaction (Homo sapiens)
Sequence (P26038 1-345): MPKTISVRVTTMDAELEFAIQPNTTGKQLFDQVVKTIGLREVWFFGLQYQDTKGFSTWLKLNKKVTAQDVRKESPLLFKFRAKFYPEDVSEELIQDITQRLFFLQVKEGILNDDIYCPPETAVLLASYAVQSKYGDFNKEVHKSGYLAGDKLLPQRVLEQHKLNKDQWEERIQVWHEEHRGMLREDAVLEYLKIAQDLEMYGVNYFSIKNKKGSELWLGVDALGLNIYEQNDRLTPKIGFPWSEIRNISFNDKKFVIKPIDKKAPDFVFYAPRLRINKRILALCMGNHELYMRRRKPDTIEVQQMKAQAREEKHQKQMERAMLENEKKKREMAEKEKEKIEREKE
Protocol Description: MSN–CD44 TR-FRET assay
Experimental Parameters: IC50, confirmatory TR-FRET dose response, Fig. 4D, primary hits
pIC50: −log10 of the molar value.

> print(dat)
                      smiles.representation  measured.metric  reported.result
1  COc1ccccc1C(=O)Nc1ccc(-c2nc3ccccc3[nH]2)cc1            pIC50     4.70 to 5.30

Moving on to the next compound.
Prompt line: Query for MSN–CD44 interaction (Homo sapiens): what pIC50 does the record show for Nc1ccc(C(=O)Nc2ccc(-c3nc4ccc(NC(=O)c5ccc(N)cc5)cc4s3)cc2)cc1.O=C(O)C(F)(F)F.O=C(O)C(F)(F)F ?
Response line: 4.70 to 5.30

* * *

Answer each item with its documented IC50.
Target Or Test System: LgBiT-MSN(T588D) and SmBit-CD44 (Homo sapiens, UniProt P26038, T558D)
Sequence (P26038 whole entry T558D): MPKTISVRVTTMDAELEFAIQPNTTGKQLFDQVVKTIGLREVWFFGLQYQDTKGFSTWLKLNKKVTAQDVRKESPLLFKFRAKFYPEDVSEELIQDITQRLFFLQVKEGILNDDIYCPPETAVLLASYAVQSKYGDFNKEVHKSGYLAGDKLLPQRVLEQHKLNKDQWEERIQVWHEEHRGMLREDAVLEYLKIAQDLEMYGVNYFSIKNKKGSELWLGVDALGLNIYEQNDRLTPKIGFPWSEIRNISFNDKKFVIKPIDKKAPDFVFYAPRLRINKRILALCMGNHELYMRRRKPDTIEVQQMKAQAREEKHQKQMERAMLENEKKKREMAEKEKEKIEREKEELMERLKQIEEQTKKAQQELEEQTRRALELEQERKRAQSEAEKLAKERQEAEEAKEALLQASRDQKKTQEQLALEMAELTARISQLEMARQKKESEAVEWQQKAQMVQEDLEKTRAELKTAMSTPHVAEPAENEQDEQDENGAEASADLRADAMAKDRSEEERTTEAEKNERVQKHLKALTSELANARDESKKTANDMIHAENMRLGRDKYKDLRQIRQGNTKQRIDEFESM
Protocol Description: NanoBiT split luciferase assay in live cells
Assay type: cell-based
Experimental Parameters: IC50, CD44–MSN interaction in live cells (approximate), NanoBiT, live cells

> print(dat)
                                   compound                     target.or.test.system  measured.metric  reported.result
1  Nc1ccc(C(=O)Nc2ccc(-c3nc4ccc(NC(=O)c5ccc(N)cc5)cc4s3)cc2)cc1.O=C(O)C(F)(F)F.O=C(O)C(F)(F)F [Compound 1]  LgBiT-MSN(T588D) and SmBit-CD44 (Homo sapiens, UniProt P26038, T558D)             IC50          ~600 nM

# next compound below
Prompt line: Give IC50 (LgBiT-MSN(T588D) and SmBit-CD44 (Homo sapiens, UniProt P26038, T558D)) of the following compound: COc1ccccc1C(=O)Nc1ccc(-c2nc3ccccc3[nH]2)cc1 [Compound 2]
Response line: ~200 nM

* * *

Target Or Test System: GST-tagged MSN and Flag-tagged CD44 (Homo sapiens, UniProt P26038)
Sequence (P26038 whole entry): as the sequence (P26038 whole entry T558D) above, with D558T counted along it
Protocol Description: GST-pull down assay in cell lysates
Type: binding
Experimental Parameters: full length proteins in cell lysates
Measured Metric: activity in GST-pulldown assay

> print(dat)
                                   molecule  reported.result
1  COc1ccc(C(=O)Nc2ccc(-c3nc4ccccc4[nH]3)cc2)c(OC)c1 [Compound 2a]  able to inhibit
2  O=C(Nc1ccc(-c2nc3ccccc3[nH]2)cc1)c1cccc(Cl)c1 [Compound 2b]  able to inhibit
3  COc1ccccc1C(=O)Nc1ccc(-c2nc3ccccc3[nH]2)cc1 [Compound 2]           active
4  Nc1ccc(C(=O)Nc2ccc(-c3nc4ccc(NC(=O)c5ccc(N)cc5)cc4s3)cc2)cc1.O=C(O)C(F)(F)F.O=C(O)C(F)(F)F [Compound 1]           active
